biological target: T1, human long form TSLP expressed on cell membrane; test: FACS on cells expressing the membrane human long-form TSLP fusion protein, MFI; unit taken from the concentration axis
T1 construct: also called membrane long-form huTSLP fusion protein; membrane long-form TSLP fusion protein
T1 sequence (chain, as listed by the source): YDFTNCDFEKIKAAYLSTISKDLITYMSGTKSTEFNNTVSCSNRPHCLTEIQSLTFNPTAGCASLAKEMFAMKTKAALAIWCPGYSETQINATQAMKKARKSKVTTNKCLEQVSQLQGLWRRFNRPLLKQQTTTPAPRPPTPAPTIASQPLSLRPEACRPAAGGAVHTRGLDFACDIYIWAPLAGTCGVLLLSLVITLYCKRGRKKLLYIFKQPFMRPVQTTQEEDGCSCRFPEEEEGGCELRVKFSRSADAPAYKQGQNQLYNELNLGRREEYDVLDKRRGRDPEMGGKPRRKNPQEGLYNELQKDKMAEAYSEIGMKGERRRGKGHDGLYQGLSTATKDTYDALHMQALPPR
recorded.endpoint: EC50 (µg/mL)
Numbers only; they are read as µg/mL.

Note EC50 for the binder shown: Chi35G12 (antibody, human IgG2, V domains shown, also called 35G12 chimeric antibody) VH: QVQLQQSGAELVRPGSSVKISCKSSGYAFSSYWMNWVKQRPGQGLEWIGQIFPGDGDTTYNGNFKGKTTLTADKSSNTAYMQLSSLTSEDSAVYFCARSGFDYGYFYAMDYWGQGTSVTVSS VL: EIVLTQSPTLMAASPGEKVTITCSVSSSISSSNLHWYQQKSETSPKPWIFGTSNLASGVPVRFSGSGSGTSYSLTISNMEAEDAATYYCQQWSSYPLTFGAGTKLELK
0.173

Note EC50 for the binder shown: 35G12Z01 (antibody, human IgG2, V domains shown) VH: QVQLVQSGAEVKKPGASVKVSCKSSGYAFSSYWMNWVRQAPGQGLEWMGQIFPGDGDTTYNGNFKGRVTMTRDTSTSTVYMELSSLRSEDTAVYYCARSGFDYGYFYAMDYWGQGTTVTVSS VL: EIVMTQSPATLSVSPGERATLSCSVSSSISSSNLHWYQQKPGQSPRPWIFGTSNLASGIPARFSGSGSGTEFTLTISSLQSEDFAVYYCQQWSSYPLTFGGGTKVEIK
0.158

Note EC50 for the binder shown: 35G12Z02 (antibody, human IgG2, V domains shown) VH: EVQLVQSGAEVKKPGESLKISCKSSGYAFSSYWINWVRQMPGKGLEWMGQIFPGDGDTTYNGNFKGQVTISADKSISTAYLQWSSLKASDTAMYYCARSGFDYGYFYAMDYWGQGTTVTVSS VL: EIVMTQSPATLSVSPGERATLSCSVSSSISSSNLHWYQQKPGQSPRPWIFGTSNLASGIPARFSGSGSGTEFTLTISSLQSEDFAVYYCQQWSSYPLTFGGGTKVEIK
0.174

Note EC50 for the binder shown: AMG 157 (antibody, human IgG2, lambda, V domains shown, also called BMK; benchmark) VH: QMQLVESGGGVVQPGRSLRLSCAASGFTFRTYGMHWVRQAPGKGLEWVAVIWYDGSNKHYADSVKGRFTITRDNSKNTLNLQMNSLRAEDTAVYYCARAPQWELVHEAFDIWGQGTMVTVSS VL: SYVLTQPPSVSVAPGQTARITCGGNNLGSKSVHWYQQKPGQAPVLVVYDDSDRPSWIPERFSGSNSGNTATLTISRGEAGDEADYYCQVWDSSSDHVVFGGGTKLTVLG
0.156
